Reference for the values: paper PMC4230943

- PROTOCOL DESCRIPTION: BAY 85-3934 plasma levels after oral administration
- Format: in vivo, rat
- CONDITION DETAILS: rat, plasma, po, 5 mg/kg; male Wistar rats
REPORTED ENDPOINT: bioavailability

Q: Quick one: give measured bioavailability for O=c1c(-n2ccnn2)c[nH]n1-c1cc(N2CCOCC2)ncn1
Result: ~38%

----------
- EXPERIMENTAL TARGET: PHD3 (Homo sapiens)
- Sequence (Q9H6Z9 whole entry): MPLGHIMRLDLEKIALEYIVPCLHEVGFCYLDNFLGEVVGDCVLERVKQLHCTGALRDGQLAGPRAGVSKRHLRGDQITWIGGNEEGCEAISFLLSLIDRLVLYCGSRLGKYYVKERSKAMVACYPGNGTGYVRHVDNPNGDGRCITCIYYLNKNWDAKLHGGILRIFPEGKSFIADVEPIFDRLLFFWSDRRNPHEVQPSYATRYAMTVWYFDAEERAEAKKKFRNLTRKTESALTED
REPORTED ENDPOINT: pIC50
Give bare numbers, as −log10 of the molar value.

Q: Provide pIC50, tested on PHD3 (Homo sapiens), for O=c1c(-n2ccnn2)c[nH]n1-c1cc(N2CCOCC2)ncn1 .
Result: 6.35

----------
- PROTOCOL DESCRIPTION: BAY 85-3934 plasma levels after oral administration
- Type: in vivo, rat
- CONDITION DETAILS: rat, plasma, oral, 5 mg/kg; male Wistar rats
REPORTED ENDPOINT: half-life (h)
One number for each entry, in h.

Q: Tell us which half-life value is on record for O=c1c(-n2ccnn2)c[nH]n1-c1cc(N2CCOCC2)ncn1
Result: 3.4

----------
- EXPERIMENTAL TARGET: PHD1 (Homo sapiens)
- Sequence (Q96KS0 whole entry): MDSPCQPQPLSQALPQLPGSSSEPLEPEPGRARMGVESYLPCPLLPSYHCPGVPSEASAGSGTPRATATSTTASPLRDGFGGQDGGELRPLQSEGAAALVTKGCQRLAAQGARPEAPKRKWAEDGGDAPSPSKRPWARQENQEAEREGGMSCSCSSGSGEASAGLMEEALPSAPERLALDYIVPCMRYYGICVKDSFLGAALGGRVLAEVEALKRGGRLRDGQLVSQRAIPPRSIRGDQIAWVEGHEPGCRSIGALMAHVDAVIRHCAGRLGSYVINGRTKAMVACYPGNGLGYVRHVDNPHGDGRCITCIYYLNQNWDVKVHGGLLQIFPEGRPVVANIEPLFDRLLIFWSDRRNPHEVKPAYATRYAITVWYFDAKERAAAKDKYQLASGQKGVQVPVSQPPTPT
REPORTED ENDPOINT: IC50 (nM)
Numbers only, in nM.

Q: // fetch IC50 for O=c1c(-n2ccnn2)c[nH]n1-c1cc(N2CCOCC2)ncn1 ; system: PHD1 (Homo sapiens)
Result: 480

----------
- EXPERIMENTAL TARGET: PHD2 (Homo sapiens)
- Sequence (Q9GZT9 whole entry): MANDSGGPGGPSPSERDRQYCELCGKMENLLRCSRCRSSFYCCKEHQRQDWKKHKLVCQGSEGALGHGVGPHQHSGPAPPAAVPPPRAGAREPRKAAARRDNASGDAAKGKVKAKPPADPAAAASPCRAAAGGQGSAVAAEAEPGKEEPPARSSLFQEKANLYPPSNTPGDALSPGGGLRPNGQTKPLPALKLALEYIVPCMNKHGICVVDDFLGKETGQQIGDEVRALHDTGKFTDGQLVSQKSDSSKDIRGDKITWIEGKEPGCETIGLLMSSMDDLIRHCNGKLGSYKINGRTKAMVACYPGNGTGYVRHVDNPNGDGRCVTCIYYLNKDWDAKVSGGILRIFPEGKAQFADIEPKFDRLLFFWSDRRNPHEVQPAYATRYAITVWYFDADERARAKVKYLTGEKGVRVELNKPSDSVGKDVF
REPORTED ENDPOINT: pIC50
One number for each entry, as −log10 of the molar value.

Q: # return recorded pIC50 for entry O=c1c(-n2ccnn2)c[nH]n1-c1cc(N2CCOCC2)ncn1
Result: 6.55
